These measurements were taken from PubChem BioAssay (NCI).

TGI for assorted molecules
system: IGROV1 ovarian; assay: NCI tumour cell line growth inhibition, 48 h
Quantity Kind: TGI

* COCOc1ccc(C2(O)Oc3cc(OCOC)ccc3C2C)c(O)c1 (centres undefined) | 31.6 µM
* CN1COCc2cc3cc4c(cc3nc21)OCCO4 | > 100 µM
* COC(C(=O)[C@@H](O)[C@@H](C)O)[C@@H]1Cc2cc3cc(O[C@H]4C[C@@H](O[C@H]5C[C@@H](O)[C@H](O)C(C)O5)[C@H](O)C(C)O4)c(C)c(O)c3c(O)c2C(=O)[C@H]1O[C@H]1C[C@@H](O[C@H]2C[C@@H](O[C@H]3C[C@@H](O)[C@H](OC)C(C)O3)[C@@H](O)C(C)O2)[C@H](O)C(C)O1 (some centres undefined) | > 33.3 µM
* COc1ccc(Cc2cnc(NC(=O)c3ccc4c(c3)OCCO4)s2)cc1 | > 55.2 µM
* Nc1ccc2[nH]cc(CCC(=O)O)c2c1 | > 100 µM
* O=C(O)C12CC3(C(=O)O)CC(C(=O)O)(CC(C(=O)O)(C1)C3=O)C2=O | > 100 µM
* O=C1CS(=O)C23c4cc5ccccc5n4CCC2CCCN13 (centres undefined) | > 100 µM
* CC12CC1C(c1cccc([N+](=O)[O-])c1)(c1cccc([N+](=O)[O-])c1)N=N2 (centres undefined) | 60.5 µM
* COc1cc(C=C2C(=O)NC(=S)NC2=O)cc(OC)c1OC | > 100 µM
* OC1(c2ccc(Cl)cc2)c2ccc(CN3CCCC3)cc2C2=NCCN21 (centres undefined) | 28.7 µM
* COC(=O)C1(Cc2ccc3c(c2)CCC3)Cc2ccccc2C1=O (centres undefined) | > 100 µM
* O=C(N/N=C/c1ccc([N+](=O)[O-])o1)c1ccc(O)cc1 | 23.1 µM
* COc1ccc(/C=C(/c2ccccc2)[N+](=O)[O-])cc1 | 2.67 µM
* CC1=CC(=O)C(C(O)(C(F)(F)F)C(F)(F)F)C(C)(C)C1 (centres undefined) | > 10 µM
* CCOc1ccccc1NC(=O)C(=O)Cc1nc2ccccc2s1 | > 100 µM
* COc1cc2c(cc1OC)C13CC[N+]4(C)CC5=CCOC6CC(=O)N2C1C6C5CC34[O-] (centres undefined) | > 100 µM
* CCN1C(=O)N(CC)C2Nn3c(s/c(=C4\C(=O)N(C)c5ccccc54)c3=O)=NC21 (centres undefined) | > 100 µM
* COc1ccc(N=NC(=Nc2ccc(F)cc2)c2ccc(N(CCC#N)CCC#N)cc2)cc1 | 77.7 µM
* Cc1ccc(-c2c(C#N)c(-c3ccc([N+](=O)[O-])cc3)c(C#N)c(=O)n2NS(=O)(=O)c2ccccc2)cc1 | > 100 µM

* * *

system: HCT-15 colon; assay: NCI tumour cell line growth inhibition, 48 h
Quantity Kind: GI50

- S=C1SC2=Nc3ccccc3CN2C2=NCCN12: 33 µM
- N.N.NCCCCCCCCCN.O=C([O-])CC(=O)[O-].O=C([O-])CC(=O)[O-].[Pt+4].[Pt+4]: > 100 µM
- COc1ccc2c(Oc3ccc(NC(=O)c4c(C)n(CC(C)(C)O)n(-c5ccccc5)c4=O)nc3)ccnc2c1: 6.75 µM
- CCCCCCCCCCN1CCC(N2CCCCC2)CC1: 1.38 µM
- CCN(CC)c1cc2oc3cc(N)cc(=N)c-3nc2cc1C: 3.14 µM
- O=c1oc2ccc(Br)cc2c(=O)n1-c1ccc(F)cc1F: 3.04 µM

* * *

system: SK-MEL-2 melanoma; assay: NCI tumour cell line growth inhibition, 48 h
Quantity Kind: TGI

- COC(=O)C1=C(O)C(C(=O)OC)[C@@]2(O)[C@@H](C(=O)OC)[C@H](C)[C@@H](C)[C@@H]1[C@@H]2C(=O)OC (stereo partly specified): > 100 µM
- O=S1(=O)OCCOS(=O)(=O)C1Cl: > 100 µM
- O=C1CS(=O)C23c4cc5ccccc5n4CCC2CCCN13 (stereo unspecified): > 100 µM
- Cc1ccc(S(=O)(=O)NC(=O)NC2=NC(C)(C)N(c3ccc(Cl)c(Cl)c3)C(N)=N2)cc1: > 100 µM
- Cc1cc(C(C)(C)C)cc(Cc2cc(C(C)(C)C)cc(Cc3cc(C(C)(C)C)cc(C)c3O)c2O)c1O: 22.3 µM
- Cc1cc2nc(-c3cc(C(C)(C)C)c(O)c(C(C)(C)C)c3)[nH]c2cc1C: > 100 µM

* * *

tested on: IGROV1 ovarian; experiment: NCI tumour cell line growth inhibition, 48 h
Quantity Kind: TGI (µM)

• COC(=O)C1=C(C)NC(C)=C([N+](=O)[O-])C1c1cccc(N=O)c1 (stereo not given) = 29.5
• O=C(Nc1ccc(Cl)c(Cl)c1)Nc1ccccc1O = 29.3
• CC/C=C/C/C=C/C/C=C/C/C=C/C/C=C/C/C=C/CCC(=O)Nc1ccn([C@@H]2O[C@H](CO)[C@@H](O)C2(F)F)c(=O)n1 = 30.7
• O=C1CC(Sc2nc3ccc(I)cc3c(=O)n2Cc2ccccc2)C(=O)NN1 (stereo not given) = 25.2

* * *

Each record here notes measured TGI.
tested on: MCF7 breast; experiment: NCI tumour cell line growth inhibition, 48 h
Quantity Kind: TGI

- CSC(SC)=C1C(=O)N(c2ccccc2)N=C1C: 46 µM
- Cc1c(C#N)c(N)n(C2OCC(O)C(O)C2O)c(=S)c1C#N (stereo unspecified): > 100 µM
- COc1ccc2c(Oc3ccc(NC(=O)c4c(C)n(CC(C)(C)O)n(-c5ccccc5)c4=O)nc3)ccnc2c1: 97.7 µM
- Cc1cc2c(nn1)-c1ccccc1C2=O: > 10 µM
- COc1ccc2c3c(Nc4ccc(/C(C)=N/O)cc4)[nH]c4ccccc4c-3c(N=O)c2c1: > 100 µM
- O=C(O)CC(NC(=O)/C(=C/c1ccccc1O)NC(=O)c1ccccc1)C(=O)O (stereo unspecified): > 100 µM
- O=C1C(Cl)=C(Nc2ccccc2O)C(=O)N1Cc1ccccc1: 64.6 µM
- S=C1SC2=Nc3ccccc3CN2C2=NCCN12: > 100 µM
- COC(=O)[C@H](Cc1ccccc1)NC(=O)c1ccc(CNC(=O)/C=C/c2cccc(Oc3ccccc3)c2)cc1: > 100 µM
- Cc1ccc(S(=O)(=O)NC(=O)NNc2ccc(F)cc2)cc1: > 100 µM
- CCc1nc2cc3cccnc3c(Cl)c2[nH]c1=O: > 100 µM

* * *

test system: SF-539 CNS; assay: NCI tumour cell line growth inhibition, 48 h
Where TGI equals or exceeds 30 µM, the correct label is True; where it does not, the label is False.

- Nc1nc(N)nc(CCCc2nc(N)nc(N)n2)n1: True
- c1ccc(C2=Nn3c(CCCCCCCCc4nnc5n4N=C(c4ccccc4)CS5)nnc3SC2)cc1: True
- COc1ccc2c(Oc3ccc(NC(=O)c4c(C)n(CC(C)(C)O)n(-c5ccccc5)c4=O)nc3)ccnc2c1: True
- OCCNCCOc1ccc(/C(=C(/Cl)c2ccccc2)c2ccccc2)cc1: False
- Cc1cn2c(C)csc2c1P(=O)(OC(C)C)OC(C)C: True
- O=C(OCc1ccccc1)C(Cc1ccccc1)N(Cc1ccccc1)Cc1ccccc1 (centres undefined): True
- Cc1cccc(C)c1NC(=O)C(=O)CC(=O)c1cccc([N+](=O)[O-])c1: True
- O=C(c1ccco1)C1CC(c2c(O)ccc3ccccc23)=NN1 (centres undefined): False
- O=C(OCC(OC(=O)c1ccccc1)C(OC(=O)c1ccccc1)C(OC(=O)c1ccccc1)c1cnn(-c2ccccc2)n1)c1ccccc1 (centres undefined): True
- CN(C)CCSc1nccc(-c2cc3ccccc3s2)n1: True
- COP(=O)(OC)C12CCOCCN1c1ccccc1C2=O (centres undefined): True
- C=C(C)[C@@]1(O[Si](C)(C)C)CCCC[C@@H]1CC(Sc1ccccc1)Sc1ccccc1: False
- COc1ccc2c(c1)CCN=C2c1ccccc1CCCCl: True
- CCCCCCCCCCN1CCC(N2CCCCC2)CC1: False
- N#CC(=N)c1ncn(-c2ccccc2N)c1N: True
- O=C1CCCc2cc3c(cc21)CC1(C3)Cc2ccc3c(c2C1)C(=O)CCC3 (centres undefined): True
- O=[N+]([O-])c1ccc(CSCc2ccc(Cl)cc2)cc1: True
- Cc1cc(C)n(-c2nnc3n2N=C(c2ccc(-c4ccccc4)cc2)CS3)n1: False
- Nc1ccc2[nH]cc(CCC(=O)O)c2c1: True
- COc1c(O)c(O)cc2c1-c1ccc(OC)c(=O)cc1C(NC(C)=O)CC2 (centres undefined): False
- CC1C(=O)OC2CC[N+]3([O-])CC=C(COC(=O)C(C)(O)C1(C)O)C23 (centres undefined): True
- Cn1c(=O)c2c(ncn2CC(=O)Nc2ccc(-c3ccccc3)nn2)n(C)c1=O: True
- CC[C@@]1(O)C(=O)OCc2c1cc1n(c2=O)Cc2c-1nc1cc(F)c(C)c3c1c2[C@@H](N)CC3: False
- CC1CN1c1c(C(=O)/C=C/c2ccc(Cl)cc2)c(-c2ccccc2)nn(C)c1=O (centres undefined): False
- C[C@]12CC[C@@H]3c4ccc(O)c([N+](=O)[O-])c4CC[C@H]3[C@@H]1CC[C@@H]2NS(=O)(=O)c1cccc(Br)c1: False
- C/C(CCn1[nH]c(=O)ccc1=O)=N\OCCCc1ccccc1: True
- COc1cc(CNc2nc3cc(C(F)(F)F)ccc3nc2-c2ccccc2)cc(OC)c1OC: True
- COc1ccc2c3c(Nc4ccc(/C(C)=N/O)cc4)[nH]c4ccccc4c-3c(N=O)c2c1: True
- C[C@H]1CCC/C=C/[C@@H]2C[C@H](O)C[C@H]2[C@H](O)[C@@H](SCC(O)CO)CC(=O)O1 (some centres undefined): True
- O=C(O)c1c2c(cc3c1CC1(Cc4ccccc4C1=O)C3)CCC2 (centres undefined): True
- CC1=C(c2cc(C(=O)Nc3ccc(Cl)cc3)nc(=S)[nH]2)Sc2ccccc2N1: True
- COC(=O)c1cccc2cccc(C(=O)Nc3ccc(Cl)cc3)c12: True
- COC(=O)[C@H](C)NC(=O)[C@H](CSC)N1C(=O)N[C@@H](C(C)C)C1=O: True
- O=C(NCc1ccc(S(=O)(=O)c2cc(F)cc(F)c2)cc1)c1ccc2nccn2c1: True
- CCOc1ccccc1NC(=O)C(=O)Cc1nc2ccccc2s1: True
- CC1C(c2ccc3c(c2)OCO3)c2cc3c(cc2OC1N1CCOCC1)OCO3 (centres undefined): True
- O=C(CCc1cccc(O)c1)NCCCNC(=O)CCc1cccc(O)c1: True
